molecular target: furin, P09958; assay: furin cleavage Z-score vs untreated control; higher = more cleavage, active = 3.5 or more, inactive = 1 or less, 8 variable residues between constant flanks; details: 7.5 min;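 further: purified furin at 1:10 enzyme:substrate in 50 mM HEPES pH 7.5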
Sequence (P09958 whole entry): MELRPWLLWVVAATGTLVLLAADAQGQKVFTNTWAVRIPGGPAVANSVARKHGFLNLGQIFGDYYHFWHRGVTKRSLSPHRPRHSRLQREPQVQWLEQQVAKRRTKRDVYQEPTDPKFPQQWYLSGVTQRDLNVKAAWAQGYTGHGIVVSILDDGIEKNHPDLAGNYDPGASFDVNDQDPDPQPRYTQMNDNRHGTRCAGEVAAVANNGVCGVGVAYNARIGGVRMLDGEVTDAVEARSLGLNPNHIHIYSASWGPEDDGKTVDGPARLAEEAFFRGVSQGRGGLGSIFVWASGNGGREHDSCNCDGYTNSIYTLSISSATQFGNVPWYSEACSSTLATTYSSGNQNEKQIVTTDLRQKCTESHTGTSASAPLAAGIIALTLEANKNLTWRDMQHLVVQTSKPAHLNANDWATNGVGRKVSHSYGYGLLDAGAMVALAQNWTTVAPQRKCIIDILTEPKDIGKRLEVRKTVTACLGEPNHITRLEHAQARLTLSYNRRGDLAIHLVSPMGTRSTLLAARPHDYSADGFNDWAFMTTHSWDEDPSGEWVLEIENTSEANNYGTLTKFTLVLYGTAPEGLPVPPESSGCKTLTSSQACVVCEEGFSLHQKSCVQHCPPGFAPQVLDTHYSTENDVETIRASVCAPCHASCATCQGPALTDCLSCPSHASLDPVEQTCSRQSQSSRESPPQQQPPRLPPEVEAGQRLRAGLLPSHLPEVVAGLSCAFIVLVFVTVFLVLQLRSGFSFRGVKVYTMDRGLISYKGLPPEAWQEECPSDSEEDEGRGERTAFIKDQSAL
The other results are listed elsewhere or left out. No count for the full screen is at hand.
Returns: one label drawn from 1 (yes) (active), 0 (no) (inactive)

Example cases with answers are listed next.
BIOSEQUENCE | CLASS
CARKIRVNGTAGNASASA [FS-2422] | 0 (no)
CASSVRPAREAGNASASA [FS-197] | 1 (yes)
CAANHDSPDAAGNASASA [HC1269] | 0 (no)
CAYRKRQCRSAGNASASA [FS-393] | 1 (yes)
CAVSGRVPRSAGNASASA [FS-1103] | 1 (yes)
CACSTRVRRQAGNASASA [FS-120] | 1 (yes)

Recorded test call requested for CALNPREKKDAGNASASA [FS-941]
0 (no)

Again, but for CADAVILLMCAGNASASA [HC596]
0 (no)

Again, but for CARALRLVDGAGNASASA [FS-2410]
0 (no)

Again, but for CAYRYRRRRSAGNASASA [FS-1440]
1 (yes)

Again, but for CATSNRQPRKAGNASASA [FS-1426]
0 (no)

Origin of measurements: the supplement of paper PMC3545927
